measurement_target: S1P1 (Homo sapiens)
Sequence (P21453 whole entry, species assumed): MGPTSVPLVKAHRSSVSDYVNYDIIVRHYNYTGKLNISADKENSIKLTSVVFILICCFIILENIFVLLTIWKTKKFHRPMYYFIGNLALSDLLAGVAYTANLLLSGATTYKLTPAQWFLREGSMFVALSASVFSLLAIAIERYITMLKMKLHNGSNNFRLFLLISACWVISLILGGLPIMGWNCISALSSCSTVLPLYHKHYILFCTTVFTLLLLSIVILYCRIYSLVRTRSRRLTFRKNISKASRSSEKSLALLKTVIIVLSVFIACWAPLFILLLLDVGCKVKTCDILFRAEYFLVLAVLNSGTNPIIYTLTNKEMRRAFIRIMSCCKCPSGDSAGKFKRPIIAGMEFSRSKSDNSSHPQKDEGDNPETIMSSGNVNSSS
procedure_text: 35S-GTPγS binding on membranes of CHO cells expressing S1P1
Format: biochemical
condition_description: read-out: S1P1/GTPG EC50
Structures can show the parent of a compound that is named as a salt.
Checkbox rule: EC50 lower than 1 nM = condition met; EC50 not lower than 1 nM = condition not met.

molecule	label_class
CCC1CCCCN1c1ccc(-c2nc(-c3cccc(CN(C)CC(=O)O)c3)no2)cc1COC (stereo not drawn) [Example 17, hydrochloride salt]	condition not met
COCc1cc(-c2nc(-c3cccc(CN(C)CC(=O)O)c3)no2)ccc1-c1ccccc1F [Example 10, hydrochloride salt]	condition met
COCc1cc(-c2nc(-c3ccc(F)c(CN(C)CCC(=O)O)c3)no2)ccc1N1CCCCC1C (stereo not drawn) [Example 19, dihydrochloride salt]	condition met
CC1CCCCN1c1ccc(-c2nc(-c3cccc(CN(C)CC(=O)O)c3)no2)cc1C(F)(F)F (stereo not drawn)	condition met
COCc1cc(-c2nc(-c3cc(F)cc(CN(C)CC(=O)O)c3)no2)ccc1-c1ccccc1C [Example 20, hydrochloride salt]	condition met
COCc1cc(-c2nc(-c3cccc(COCC(=O)O)c3)no2)ccc1N1CCCCC1C (stereo not drawn) [Example 4, hydrochloride salt]	condition not met
